- TEST_DETAILS: xn = mol fraction of the nth substance listed, in the solute-free solvent
- MEASUREMENT_PARAMETERS: 323.15 K; x2 = 0.3
PROPERTY_NAME: solubility (g/100 g solution)

CCCCN1CCCCC1C(=O)Nc1c(C)cccc1C.Cl.O (centres undefined) + CO + O    19.7

(a) CCCCN1CCCCC1C(=O)Nc1c(C)cccc1C.Cl.O (centres undefined) + CCO + O
(b) CC1(C)SC2C(NC(=O)C(NC(=O)N3CCNC3=O)c3ccccc3)C(=O)N2C1C(=O)O (centres undefined) + CO + CC(C)O
Input line: Lower value of solubility (g/100 g solution) belongs to which: a or b ? Please respond with the label that marks your chosen entry.
Output line: b
(b: 0.735, a: 12.4)
